- TARGET_OF_ASSAY: UniProt:P14618
- ASSAY_NOTES: PKM2 Assay
- Type: biochemical
- EXPERIMENTAL_SETUP: activation of PKM2 enzyme, LDH-coupled, absorbance at 340 nm; read-out: PKM2_AC50
Can you tell me AC50 for the items I'm about to list?

Study these solved cases before continuing.
SMILES_TEXT: O=S(=O)(Nc1cccc(C(F)(F)F)c1)c1cccn1-c1ccnc(Cl)n1
AC50: 500 to 1000 nM

SMILES_TEXT: O=S(=O)(Nc1cccc2ccccc12)c1cncn1-c1ncc(C(F)(F)F)cc1Cl
AC50: 100 to 500 nM

SMILES_TEXT: O=S(=O)(Nc1cc(F)cc(F)c1)c1cccn1-c1ncc(C(F)(F)F)cc1Cl
AC50: < 100 nM

SMILES_TEXT: O=S(=O)(Nc1ccc(F)cc1)c1cncn1-c1ncc(C(F)(F)F)cc1Cl
AC50: 1000 to 10000 nM

AC50 for UniProt:P14618 with input O=S(=O)(Nc1cc(F)cc(F)c1)c1cncn1-c1ncccn1 equals 1000 to 10000 nM

---

Can you tell me AC50 for the items I'm about to list?
- TARGET_OF_ASSAY: PKM2 (Homo sapiens)
- ASSAY_NOTES: PKM2 Assay
- Format: biochemical
- EXPERIMENTAL_SETUP: activation of PKM2 enzyme, LDH-coupled, absorbance at 340 nm; read-out: PKM2_AC50

Record AC50 per entry; entries follow.
1. O=S(=O)(Nc1cccc(Cl)c1)c1cncn1-c1nccs1
2. O=S(=O)(Nc1ccc(Oc2ccc(C(F)(F)F)cn2)c(Cl)c1)c1cccn1-c1ncc(C(F)(F)F)cc1Cl
3. Cc1cc(NS(=O)(=O)c2cncn2-c2cccs2)ccc1F
4. O=S(=O)(Nc1cc(F)cc(F)c1)c1cccn1-c1ncccc1Cl [drawing 63]

Response line:
1: 0.5 to 1 µM; 2: 1 to 10 µM; 3: 1 to 10 µM; 4: 0.5 to 1 µM

Field AC50 (entry CCc1cccc(NS(=O)(=O)c2cccn2-c2ncc(C(F)(F)F)cc2Cl)c1 ) reads 0.5 to 1 µM

---

- TARGET_OF_ASSAY: PKM2 (Homo sapiens, UniProt P14618)
- Sequence (P14618 whole entry): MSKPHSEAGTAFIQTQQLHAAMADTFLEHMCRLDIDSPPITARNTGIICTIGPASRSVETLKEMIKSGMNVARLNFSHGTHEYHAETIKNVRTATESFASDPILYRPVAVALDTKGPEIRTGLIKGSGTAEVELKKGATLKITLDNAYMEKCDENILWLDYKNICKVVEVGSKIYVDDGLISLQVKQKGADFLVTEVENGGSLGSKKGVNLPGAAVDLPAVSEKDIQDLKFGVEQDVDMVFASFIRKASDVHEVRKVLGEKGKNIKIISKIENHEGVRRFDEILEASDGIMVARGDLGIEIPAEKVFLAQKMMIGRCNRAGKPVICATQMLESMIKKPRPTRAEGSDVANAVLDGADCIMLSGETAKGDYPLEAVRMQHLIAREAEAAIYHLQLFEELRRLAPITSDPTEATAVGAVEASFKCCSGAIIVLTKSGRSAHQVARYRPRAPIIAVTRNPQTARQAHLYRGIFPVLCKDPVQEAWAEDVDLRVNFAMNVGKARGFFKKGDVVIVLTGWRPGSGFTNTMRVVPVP
- ASSAY_NOTES: PKM2 Assay
- Format: biochemical
- EXPERIMENTAL_SETUP: activation of PKM2 enzyme, LDH-coupled, absorbance at 340 nm; read-out: PKM2_AC50
READOUT_NAME: AC50

Record AC50 per entry; entries follow.
1. O=S(=O)(Nc1ccc(F)c(Cl)c1)c1cncn1-c1ncc(C(F)(F)F)cc1Cl
2. Cc1cc(NS(=O)(=O)c2ccnn2-c2ncc(C(F)(F)F)cc2Cl)ccc1F
3. COC(=O)c1cccc(NS(=O)(=O)c2cccn2-c2ncc(C(F)(F)F)cc2Cl)c1
4. O=S(=O)(Nc1ccc(F)cc1)c1cncn1-c1ccnc(Cl)n1
5. O=S(=O)(Nc1ccc(F)c(Cl)c1)c1cncn1-c1cccs1
6. O=S(=O)(Nc1ccc(Cl)cc1)c1cnn(-c2ncc(C(F)(F)F)cc2Cl)c1
7. O=S(=O)(Nc1ccc(F)cc1)c1cncn1-c1nccc(Cl)n1

Response line:
0.1 to 0.5 µM
< 0.1 µM
1 to 10 µM
1 to 10 µM
1 to 10 µM
0.1 to 0.5 µM
1 to 10 µM

Record AC50 per entry; entries follow.
1. CCCNS(=O)(=O)c1cccn1-c1ncc(C(F)(F)F)cc1Cl
2. O=S(=O)(Nc1cccc(-c2ccc(C(F)(F)F)cn2)c1)c1cccn1-c1ncc(C(F)(F)F)cc1Cl
3. O=S(=O)(Nc1ccc2ncccc2c1)c1cncn1-c1ncc(C(F)(F)F)cc1Cl

Response line:
1. 1 to 10 µM
2. 1 to 10 µM
3. 1 to 10 µM

---

- TARGET_OF_ASSAY: PKM2 (Homo sapiens)
- ASSAY_NOTES: PKM2 Assay
- Type: biochemical
- EXPERIMENTAL_SETUP: activation of PKM2 enzyme, LDH-coupled, absorbance at 340 nm; read-out: PKM2_AC50
READOUT_NAME: AC50

Study these solved cases before continuing.
SMILES_TEXT: CN(C)S(=O)(=O)c1cccn1-c1ncc(C(F)(F)F)cc1Cl
AC50: > 10000 nM
--
SMILES_TEXT: O=S(=O)(Nc1cc(Cl)cc(Cl)c1)c1cncn1-c1ncc(C(F)(F)F)cc1Cl
AC50: 1000 to 10000 nM

Shifting focus to the molecule that follows.
Field AC50 (entry O=S(=O)(Nc1ccc(F)c(Cl)c1)c1cncn1-c1ccnc(Cl)n1 ) reads 100 to 500 nM

---

Can you tell me AC50 for the items I'm about to list?
- TARGET_OF_ASSAY: PKM2 (Homo sapiens)
- ASSAY_NOTES: PKM2 Assay
- Assay type: biochemical
- EXPERIMENTAL_SETUP: activation of PKM2 enzyme, LDH-coupled, absorbance at 340 nm; read-out: PKM2_AC50

Study these solved cases before continuing.
MOLECULE: COc1ccc(NS(=O)(=O)c2cncn2-c2ccc(C(F)(F)F)cn2)cc1
EXPERIMENTAL_VALUE: 1000 to 10000 nM
//
MOLECULE: O=S(=O)(Nc1ccccc1C(F)(F)F)c1cccn1-c1ncc(C(F)(F)F)cc1Cl
EXPERIMENTAL_VALUE: 1000 to 10000 nM
//
MOLECULE: O=S(=O)(Nc1cccc2ncccc12)c1cncn1-c1ncc(C(F)(F)F)cc1Cl
EXPERIMENTAL_VALUE: 1000 to 10000 nM
//
MOLECULE: Cc1cc(NS(=O)(=O)c2cncn2-c2ncccn2)ccc1F [drawing 132]
EXPERIMENTAL_VALUE: < 100 nM

Field AC50 (entry O=S(=O)(Nc1ccc(Cl)cc1)c1cnn(-c2ccc(C(F)(F)F)cn2)c1 ) reads 1000 to 10000 nM

---

- TARGET_OF_ASSAY: PKM2 (Homo sapiens, UniProt P14618)
- ASSAY_NOTES: PKM2 Assay
- Format: biochemical
- EXPERIMENTAL_SETUP: activation of PKM2 enzyme, LDH-coupled, absorbance at 340 nm; read-out: PKM2_AC50
READOUT_NAME: AC50

Study these solved cases before continuing.
MOLECULE: Cc1cc(NS(=O)(=O)c2cncn2-c2cnccn2)ccc1F
EXPERIMENTAL_VALUE: 100 to 500 nM
//
MOLECULE: O=S(=O)(Nc1cc(F)cc(F)c1)c1cncn1-c1nccc(Cl)n1
EXPERIMENTAL_VALUE: 1000 to 10000 nM
//
MOLECULE: CCc1cccc(NS(=O)(=O)c2cccn2-c2ccnc(Cl)n2)c1
EXPERIMENTAL_VALUE: 100 to 500 nM
//
MOLECULE: O=S(=O)(Nc1cc(F)cc(F)c1)c1cccn1-c1ccnc(Cl)n1
EXPERIMENTAL_VALUE: 500 to 1000 nM
//
MOLECULE: Cc1cc(NS(=O)(=O)c2cccn2-c2ccnc(Cl)n2)ccc1F
EXPERIMENTAL_VALUE: < 100 nM

Record AC50 per entry; entries follow.
1. Cc1cc(C)cc(S(=O)(=O)Nc2ccnn2-c2ncc(C(F)(F)F)cc2Cl)c1
2. COCCNS(=O)(=O)c1cccn1-c1ncc(C(F)(F)F)cc1Cl
3. O=S(=O)(Nc1ccc2ccccc2c1)c1cncn1-c1ncc(C(F)(F)F)cc1Cl [drawing 128]
4. Cc1cc(NS(=O)(=O)c2cccn2-c2ncc(C(F)(F)F)cc2Cl)ccc1Cl
5. O=S(=O)(Nc1ccc2c(c1)OCO2)c1cccn1-c1ccnc(Cl)n1

Response line:
["> 10000 nM", "> 10000 nM", "< 100 nM", "< 100 nM", "< 100 nM"]

Record AC50 per entry; entries follow.
1. Cc1cc(NS(=O)(=O)c2cncn2-c2ncccn2)ccc1F [drawing 158]
2. Cc1cc(C)cc(NS(=O)(=O)c2cccn2-c2nccc(Cl)n2)c1
3. N#Cc1cccc(NS(=O)(=O)c2cncn2-c2ncc(C(F)(F)F)cc2Cl)c1
4. Cc1cc(C)cc(NS(=O)(=O)c2cccn2-c2ccc(C(F)(F)F)cn2)c1
5. COc1cc(NS(=O)(=O)c2cncn2-c2ncc(C(F)(F)F)cc2Cl)cc(C(F)(F)F)c1 [drawing 149]
6. O=S(=O)(Nc1ccc(Cl)cc1)c1cncn1-c1cnccn1
7. Cc1cc(NS(=O)(=O)c2cncn2-c2ncc(C(F)(F)F)cc2Cl)ccc1F

Response line:
1. 100 to 500 nM
2. < 100 nM
3. 1000 to 10000 nM
4. 100 to 500 nM
5. 1000 to 10000 nM
6. 1000 to 10000 nM
7. < 100 nM

Record AC50 per entry; entries follow.
1. O=S(=O)(Nc1ccc2c(c1)OCO2)c1cncn1-c1ncccn1
2. O=S(=O)(Nc1ccc2c(c1)OCO2)c1cccn1-c1nccc(Cl)n1
3. COc1cc(NS(=O)(=O)c2cncn2-c2ncc(C(F)(F)F)cc2Cl)cc(OC)c1
4. O=S(=O)(Nc1ccc(Cl)cc1)c1cccn1-c1ncccc1Cl [drawing 154]

Response line:
500 to 1000 nM
100 to 500 nM
500 to 1000 nM
100 to 500 nM

Record AC50 per entry; entries follow.
1. O=S(=O)(Nc1cc(F)cc(F)c1)c1cccn1-c1ncccc1Cl [drawing 162]
2. O=S(=O)(Nc1cccc(C(F)(F)F)c1)c1cncn1-c1ncc(C(F)(F)F)cc1Cl
3. O=S(=O)(Nc1ccc2c(c1)OCO2)c1cncn1-c1cnccn1
4. Cc1cc(C)cc(NS(=O)(=O)c2cncn2-c2ccc(C(F)(F)F)cn2)c1
5. Cc1cc(NS(=O)(=O)c2cccn2-c2ncccc2Cl)ccc1F [drawing 101]
6. Cc1cc(NS(=O)(=O)c2ccnn2-c2cccs2)ccc1F

Response line:
< 100 nM
1000 to 10000 nM
100 to 500 nM
100 to 500 nM
< 100 nM
1000 to 10000 nM
